Test system: DL1 cells
experimental protocol: cytotoxicity in Drosophila DL1 cells
Type: cell-based
test parameters: DL1 cells, 0.2 µM, replicate 2
Description: We screened the DDPs on the Drosophila assay system for cytotoxicity, inhibitory activity of innate immune signalling and insecticidal activity. The cytotoxicity of the DDPs was evaluated using two cell lines, embryonic macrophage-derived DL1 cells[58]–[60] and larval blood cell-derived l(2)mbn cells, and their IC50 values are listed in Supplementary Table 23.
quantity: Luminescence Raw2
Lab note: record the figure alone, no unit after it.

Some solved entries appear below for comparison.
INSERT INTO measurements (molecule, quantity, readout_number) VALUES
  ('C=C1CCC2C(C)(CCC=C(C)C)C(O)CCC2(C)C1Cc1c(O)c(C)c(C)oc1=O (stereo not shown)', 'Luminescence Raw2', 2435040),
  ('C=C1CC[C@H]2[C@]3(C)C[C@H](C=C(C)C)O[C@H]3CC[C@]2(C)[C@@H]1Cc1c(OC)oc(CO)c(C)c1=O', 'Luminescence Raw2', 1320836),
  ('C=C1CCC2C(C)(CCC=C(C)C)C(=O)CCC2(C)C1Cc1c(O)c(C)c(C)oc1=O (stereo not shown)', 'Luminescence Raw2', 2851638),
  ('C=C1CC[C@H]2[C@]3(C)C[C@H](C=C(C)C)O[C@H]3CC[C@]2(C)[C@@H]1Cc1c(OC)oc(C)c(C)c1=O', 'Luminescence Raw2', 975712);

[in] Please state recorded Luminescence Raw2 (tested on DL1 cells) of C=C1CCC2C(C)(CC(=O)C=C(C)C)C(O)CCC2(C)C1Cc1c(O)c(C)c(C)oc1=O (stereo not shown)
[out] 2789792

[in] Also need C=C1CCC2C(C)(CCC=C(C)C)C(O)CCC2(C)C1Cc1c(OC)oc(C)c(C)c1=O (stereo not shown) [Compound 15, viridoxin A hydrolysate] , thanks.
[out] 2853442

[in] Also need C=C1CCC2C(C)(CC(=O)C=C(C)C)C(O)CCC2(C)C1Cc1c(OC)oc(C)c(C)c1=O (stereo not shown) , thanks.
[out] 2657777
